# system-name: T1, human GLP-2 receptor (human, UniProt O95838 1-553)
# T1 sequence (looked up): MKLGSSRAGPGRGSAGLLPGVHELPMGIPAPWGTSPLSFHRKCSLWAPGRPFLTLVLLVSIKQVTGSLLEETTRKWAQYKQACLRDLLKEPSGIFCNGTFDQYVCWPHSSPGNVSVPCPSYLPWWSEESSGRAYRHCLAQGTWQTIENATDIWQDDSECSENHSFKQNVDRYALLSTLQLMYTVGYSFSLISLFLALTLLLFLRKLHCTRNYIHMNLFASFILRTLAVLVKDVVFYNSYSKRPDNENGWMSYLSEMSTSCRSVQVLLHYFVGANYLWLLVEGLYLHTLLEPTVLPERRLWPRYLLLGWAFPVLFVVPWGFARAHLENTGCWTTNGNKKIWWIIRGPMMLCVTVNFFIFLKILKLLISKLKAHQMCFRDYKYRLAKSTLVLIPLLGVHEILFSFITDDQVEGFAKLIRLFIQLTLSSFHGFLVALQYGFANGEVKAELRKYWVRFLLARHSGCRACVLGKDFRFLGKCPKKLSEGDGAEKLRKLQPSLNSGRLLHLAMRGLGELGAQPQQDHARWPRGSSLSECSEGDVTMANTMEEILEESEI
# assay-comment: cell-based or functional assay
Ends that are not written are not given here. * marks the point of attachment. Palmitoyl = CCCCCCCCCCCCCCCC(=O)*
Label class 1 when Emax (10 µM), % of native GLP-2 is at or above 90%; anything below gets class 0.

Solved entries (count: 4):
| binder | answer-label |
| --- | --- |
| HADGTFISDYSTILDNLAAKDFINWLIQTKITK [GIP-GLP-2 co-agonist 28] | class 1 |
| HADGTFSSDYSTILDNLAAK(Palmitoyl)DFINWLIQTKITD [GIP-GLP-2 co-agonist 21] | class 0 |
| HADGTFISDYSKILDNLAARDFINWLIQTKITK [GIP-GLP-2 co-agonist 24] | class 1 |
| HADGTFISDYSTILDNLAARDFINWLIQTKGKKNDWKHNITQ [GIP-GLP-2 co-agonist 34] | class 1 |

Request: Could you tell me if the measured Emax (10 µM), % of native GLP-2 of HADGTFSSDYSTILDNLAARDFINWLIQTK(Palmitoyl)ITD [GIP-GLP-2 co-agonist 23] reaches 90% or more?
Result: class 0
